All values here come from paper PMC11881275.

assay.info: Cytotoxic activity via the MTT method
Type: cell-based, human
settings: human, HepG2 cells
measured.quantity: viability at 72 h, 500 µM

* CC(=O)OCc1cn(-c2n[nH]c(C(F)(F)F)n2)nn1 [Compound 14d] | 93.4%
* CC(=O)OCc1cn(-c2n[nH]c(C)n2)nn1 [Compound 13d] | 80%
* C[C@@H]1CC[C@H]2[C@@H](C)C(=O)O[C@@H]3O[C@@]4(C)CC[C@@H]1[C@]32OO4 [Artemisinin] | 100%

----------
Tested on: P. falciparum W2 clone
assay.info: In vitro antimalarial activity via the SYBR Green I assay
Type: cell-based, Plasmodium falciparum
settings: Plasmodium falciparum, W2, 72 h, read-out: IC50 W2
measured.quantity: IC50 (nM)

- C[C@@H]1CC[C@H]2[C@@H](C)C(=O)O[C@@H]3O[C@@]4(C)CC[C@@H]1[C@]32OO4: 21
